Hey, just so you know, these numbers are from PubChem BioAssay (NCI).

# Test system: CAKI-1 renal
# Assay details: NCI tumour cell line growth inhibition, 48 h
Attribute measured: TGI (µM)
Could you give me the number in µM? Just the number is fine.

>  <Compound>
CC1=NN(c2nc(N)nc(CN3CCOCC3)n2)C(C)(C)C1

>  <Numeric result>
40.1

$$$$
>  <Compound>
O=C1N[C@@H]2[C@@H](O)[C@@H](O)[C@H](O)C[C@H]2c2cc3c(c(O)c21)OCCO3

>  <Numeric result>
6.14

$$$$
>  <Compound>
CCOC(OC(C)=O)[C@@H]1C=C[C@H](C)N(c2ccc([N+](=O)[O-])cc2)O1 (some centres undefined)

>  <Numeric result>
24.3

$$$$

Query block: Please list TGI recorded for the compound `CC(C)[N+]([O-])(CCCNc1c2ccccc2nc2cccc([N+](=O)[O-])c12)C(C)C`
Result block: 6.2
